tested on: A549 NSCLC; experiment: NCI tumour cell line growth inhibition, 48 h; in the data active = GI50 below about 0.43 µM; inactive = the rest
Mark one answer only. Choices: yes (1) = active, no (0) = inactive

CCc1c2c(nc3ccc(OC(=O)OCc4ccc(B5OC(C)(C)C(C)(C)O5)cc4)cc13)-c1cc3c(c(=O)n1C2)COC(=O)[C@]3(O)CC    yes (1)

Incoming: Query: recorded result category for `CC[C@H](C)C(=O)O[C@H]1CCC=C2C=C[C@H](C)[C@H](CC[C@@H]3C[C@@H](O)CC(=O)O3)[C@H]21` in this test
Outgoing: no (0)

Incoming: What outcome does the record of this test show for `CN(CO)c1nc(N(C)CO)nc(N(C)CO)n1` ?
Outgoing: no (0)

Incoming: Entry COc1ccc(-c2nsc3c2NC(=O)CC3c2cccc(F)c2)cc1 (centres undefined) : call = ?
Outgoing: no (0)
